Values compiled from the RNAGym collection of RNA variant scans (doi:10.1073/pnas.2313332121).

B1: TPR t1 (parent)
chain: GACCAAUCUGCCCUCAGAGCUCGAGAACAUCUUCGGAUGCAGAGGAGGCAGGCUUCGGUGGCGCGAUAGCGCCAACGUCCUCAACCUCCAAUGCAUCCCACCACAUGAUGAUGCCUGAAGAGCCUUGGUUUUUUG

# Variants of: B1
# Protocol: polymerase ribozyme fitness, log enrichment relative to wild type (log ratio); higher = more active; in vitro selection for triplet polymerase activity
Output 1 for polymerase ribozyme fitness (log ratio) not less than -2; output -1 otherwise.

Inquiry: I'd appreciate it if you could say whether GACCAAUCUGCCCUCAGAGCUCGAGAACAUCUUCGGAUGCAGAGGAGGCAGGCUUCGGUGUCGCGAUAGCGCCAACGUCCUCAACCUCCAAUGCAUCCCACCACACGAUGAUGCCUGAAGAGCCUUGGUUUUUUG [G61U U106C] has polymerase ribozyme fitness (log ratio) at least equal to -2.
Reply text: 1

Inquiry: I'd appreciate it if you could say whether GACCAAUCUGCCCUCAGAGCUCGAGAACAUCUUCGGAUGCAGAGGAGGCAGGCUUCGGUGGCGCGAUAGCGUCAACGGCCUCAACCUCCAAUGCAUCCCACCACAUGACGAUGCCUGAAGAGCCUUGGUUUUUUG [C72U U78G U109C] has polymerase ribozyme fitness (log ratio) at least equal to -2.
Reply text: -1

Inquiry: I'd appreciate it if you could say whether GACCAAUCUGCCCUCAGAGCUCGAGAACAUCUUAGGAUGCAGAGGAGGCAGGCUUCGGUGGCGCGAUAGCGCCAACGUCCUCAACCUCCAAUGCAUCCCACCACAUGAUGAUGCCUGAAAAGCCUUGGUUUUUUG [C34A G120A] has polymerase ribozyme fitness (log ratio) at least equal to -2.
Reply text: -1

Inquiry: I'd appreciate it if you could say whether GACCAAUCUGCCCUCAGAGCUCGAGAACAUCUUCGGAUGCAGAGGAGGCAGGCUUCGGUGGCGCGAUAGCGGCAACGUCAUCAACCUCCAAUGCAUCCCACCACAUGAUGAUGCCUGAAGAGCCUUGGUUUUUUG [C72G C80A] has polymerase ribozyme fitness (log ratio) at least equal to -2.
Reply text: -1

Inquiry: I'd appreciate it if you could say whether GACCAAUCUGCCCUCAGAGCUCGAGAACAUCUUCGGAUGCAGAGGAGGCAGGCUUCGGUGGUGCGAUAGCGCCAACGUCCUCAACCUCCAAUGCAUCCCACCAAAUGAUGAUGCCUGAAGAGCCUUGGUUUUUUG [C62U C104A] has polymerase ribozyme fitness (log ratio) at least equal to -2.
Reply text: 1

Inquiry: I'd appreciate it if you could say whether GACCAAUCUGCCCUCAGAGCUCGAGAACAUCUUCGGAUGCAGAGGAGGCAGGCUUCGGUGGCGCGAUAGCGCCAACGUCCUCAACCUCCAAUGCAUCCCACCACAAGAUGAUGCCUGAAGAGUCUUGGUUUUUUG [U106A C123U] has polymerase ribozyme fitness (log ratio) at least equal to -2.
Reply text: 1

Inquiry: I'd appreciate it if you could say whether GACCCAUCUGUCCUCAGAGCUCGAGAACAUCUUCGGAUGCAGAGGAGGCAGGCUUCGGUGGCGCGAUAGCGCCAACGUCCUCAACCUCCAAUGCAUCCCACCACAUGAUGAUGCCUGAAGAACCUUGGUUUUUUG [A5C C11U G122A] has polymerase ribozyme fitness (log ratio) at least equal to -2.
Reply text: 1

Inquiry: I'd appreciate it if you could say whether GACCAAUCUGCCCUCAGAGUUCGAGAACAUCUUCGGAUGCAGGGGAGGCAGGCUUCGGUGGUGCGAUAGCGCCAACGGCCUCAACCACGAAUGCAUCCCACCACAUGAUGAUGCCUGAAGAGCCUUGGUUUUUUG [C20U A43G C62U U78G U87A C89G] has polymerase ribozyme fitness (log ratio) at least equal to -2.
Reply text: -1

Inquiry: I'd appreciate it if you could say whether GACCAAUCUGCCCUCAGAGCUCGAGAACAUCUUCGGAUGCAGAGGAGACAGGAUUCGGGGCCGCGAUAGCGCCAACGUCCUCAACCUCCAAUGCAUCCCACCACAUGAUGAUGCCUGAAGAGCCUUGGUUUUUUG [G48A C53A U59G G61C] has polymerase ribozyme fitness (log ratio) at least equal to -2.
Reply text: 1

Inquiry: I'd appreciate it if you could say whether GACCAAUCUGCCCUCAGAGCUCGGGAACAUCUUCGGAUGCAGAGCAGGCAGGCUUCGGUGGCGCGAUAGCGCCAACGUCCUCAACCUCCAAUGCAUCCCACCACAUGAUGAUGCCUGAAGAGCCUUGGUUUUUUG [A24G G45C] has polymerase ribozyme fitness (log ratio) at least equal to -2.
Reply text: -1

Inquiry: I'd appreciate it if you could say whether GACCAAUCUGCCCUCAGAGCUCGAGAACAUCUUCGGAUGCAGAGGAGGCAGGCUUCGGUGGCGCGAUAGCGCAAACGUCCUCAACCACCAAUGCAUCCCACCACAUGAUGAUGCCUGAACAGCAUUGGUUUGUUG [C73A U87A G120C C124A U132G] has polymerase ribozyme fitness (log ratio) at least equal to -2.
Reply text: -1

Inquiry: I'd appreciate it if you could say whether GACCAAUCUGCCCUCAGAGCUCGAGAACAUCUUCGGAUGCAGAGGAGACAGGCUUCGGUGGCGCGAUAGCGCUAACGUCCUCAACCUCCAAUGCAUCCCACCACAUGAUGAUGCCUGAGGAGCCUUGGUUUUUUG [G48A C73U A119G] has polymerase ribozyme fitness (log ratio) at least equal to -2.
Reply text: 1

Inquiry: I'd appreciate it if you could say whether GACUAAUCUGCCCUCAGAGCUCGAGAACAUCUUCGGAUGCAGAGGAGGCAGGCUUCGGUGGCGCGAUAGCGCCAAGGUCCUCAACCUCCAAUGCAUCCCACCACAUGAUGAUGUCUGAAGAGCCUUGGAUUUUUG [C4U C76G C114U U129A] has polymerase ribozyme fitness (log ratio) at least equal to -2.
Reply text: -1

Inquiry: I'd appreciate it if you could say whether GGCCAAUCUGCCCUCAGAGCUCGAGAACAUCUUCGGAGGCAUAGGAGGCAGGCUUCGGUGUCGCGAUAGCGCUAACGUCCUCAACCUCCAAUGCAUCCCACCACAUGAUGAUGCUUGAAGAGCCUUGGUUUUUUG [A2G U38G G42U G61U C73U C115U] has polymerase ribozyme fitness (log ratio) at least equal to -2.
Reply text: -1

Inquiry: I'd appreciate it if you could say whether GACCAAUCUGCCCUCAGAGCUCGAGAACAUCUUCGGAUGCAGAGGAGGGAGGCUUCGGUGGCGCGAUAGCGCCAACGUCCGCAACCUCCAAUGCAUCCCACCACAUGAUGAUGCCUGAAGAGCCUUGGUUUUUUG [C49G U81G] has polymerase ribozyme fitness (log ratio) at least equal to -2.
Reply text: -1

Inquiry: I'd appreciate it if you could say whether GACCAAUCUGCCCUCAGAGCUCGAGAACAUCUUCGGAUGCGGAGGAGGCAGGCUUCGGUGGCUCGAUAGCGCCAACGUCCUCAACCUCCAAUGCAUCCCACCACAUGAUGAUGCCUGAAGAGCCUUGGUUUUUUG [A41G G63U] has polymerase ribozyme fitness (log ratio) at least equal to -2.
Reply text: -1

Inquiry: I'd appreciate it if you could say whether GACCAAUCUGCCCUCAGAGCUCGAGAACAUCUUCGGAUGAAGAGGAGGCAGGCUUCGGUGCCGCGAUAGCGCCAACGUCCUCAACCUCCAAUGCAUCCCACCACAUGAUGAUGCCUGAAGAGCCUGGGUUUUUUG [C40A G61C U126G] has polymerase ribozyme fitness (log ratio) at least equal to -2.
Reply text: -1

Inquiry: I'd appreciate it if you could say whether GACCAAUCUGCCCUCAGAGCUCGAGAACAUCUUCGGAUGGAGAGGAGGCAGGCUUCGGUGGCGGGAUAGCGCCAACGUCCUCAAACUCCAAUGCAUCCCACCACAUGAUGACGCCUGAAGAGCCUUGGUUUUUUG [C40G C64G C85A U112C] has polymerase ribozyme fitness (log ratio) at least equal to -2.
Reply text: -1

Inquiry: I'd appreciate it if you could say whether GACCAAUCUGCCCUCAGAGCUCGAGAACAUCUUCGGAUGCAGAGGAGGCAGGCUUCGGUGGCGUGAUAGCGCCAACAUCCUCAACCUCCAAUCCAUCUCACCACAUGAUGAUGCCUGAAAAGCGUUGGUUUUUUG [C64U G77A G93C C98U G120A C124G] has polymerase ribozyme fitness (log ratio) at least equal to -2.
Reply text: 1

Inquiry: I'd appreciate it if you could say whether GUCCAAUCUUCCCUCAGAGCUCGAGAACAUCUUCGGAUGCAGAGGAGGCAGGCUUCGGUGGCGCGAUAGCGCCAACGUCCUCAACCUCCCAUGCAUCCCACCACAUGAUGAUGCCUGAAGAACCUUGGUUUUUUG [A2U G10U A90C G122A] has polymerase ribozyme fitness (log ratio) at least equal to -2.
Reply text: -1

Inquiry: I'd appreciate it if you could say whether GACCAAUCUGCCCUCAGAGAUCGAGAACAUCUUCGGAUGCAGAGGAGGCAGGCUUCGGUGGCACGAUAGCGCCAACGUCCUCAACCUCCAAUGCAUCCCACCACAUGAUGAUGCCUGAAGAGCCUUGGUUUUUUG [C20A G63A] has polymerase ribozyme fitness (log ratio) at least equal to -2.
Reply text: -1

Inquiry: I'd appreciate it if you could say whether GACCAAUCUGCACUCAGAGCUCGAGAACAUCUUCGGAUGCAGAGGAGGCAGGUUUCGGUGGCGCGAUAGCGCCAACGUCCUCCACCUCCAAUGCAUCCCACCACAGGAUGAUUCCUGAAGAGCCUUGGUUUUUUG [C12A C53U A83C U106G G113U] has polymerase ribozyme fitness (log ratio) at least equal to -2.
Reply text: -1

Inquiry: I'd appreciate it if you could say whether GGCCAAUCUGCCCUCAGAGCUCGAGAACAUCUUCGGAUGCAGAGGAGGCUGGCUUCGGUGGCGCGAUAGCGCCAACGUCCACAACCUCCAAUGCAUCCCACCACAUGAUGAUGCCUGAAGAGCCUUGGUUUUUUG [A2G A50U U81A] has polymerase ribozyme fitness (log ratio) at least equal to -2.
Reply text: 1
